These entries and their values trace back to the RNAGym collection of RNA variant scans (doi:10.1021/acssynbio.7b00057).

Each entry below carries its recorded aptazyme ON/OFF ratio.
B1: Pistol ribozyme (parent)
chain: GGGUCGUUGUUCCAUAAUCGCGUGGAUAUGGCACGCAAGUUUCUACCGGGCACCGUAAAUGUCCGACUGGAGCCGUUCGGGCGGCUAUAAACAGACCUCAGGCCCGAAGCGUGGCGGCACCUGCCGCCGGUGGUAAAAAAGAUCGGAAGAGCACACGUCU

Variants of: B1
Experiment: aptazyme ON/OFF ratio, guanine; higher = stronger switching; co-transcriptional cleavage with and without guanine
observation-type: aptazyme ON/OFF ratio

mutation-id	reading
U7A U8C G9U U11C C12A C13U	1.2
U7C U8G U10G C12A C13G	1.09
G9U U11G C12G C13A	1.49
U8C G9C U11A C13U	1.07
U8G G9U U10G U11A C13G	1.04
U7G U8A G9C U11C C13A	1.06
U7C U8G G9A U10G U11C C12G C13G	1.41
U7G U8C G9C U10G U11C C12U C13A	1.26
U7C U8G U10G C12A C13U	1.33
U7C U8G G9A U10C U11A C12U C13A	1.07
U8C G9C U10G U11G C13G	1.11
U7G U10A U11C C12G C13A	1.1
U7A U8A U10A U11G C12A	1.09
U7C G9A U10G C12G C13G	1.1
U7C G9C C13A	1.03
U7G U8A U10C C12U C13U	1.32
U7G U8A G9C U10G C12A	1.02
U7G U8A U10C U11C C12A C13U	1.23
U7G U8A G9C U11C C12A	1.11
U8C G9C U10A U11G C12G	1.32
U8G U11G C12U	1.33
U7A U8C G9A U10A U11G C12G C13U	1.11
U10G U11A	1.12
U8A G9U U10G C12G	1.13
G9U U10C U11C C12U C13G	1.09
U7G U8A G9U U10A U11G C12G C13G	1.15
U7C U8C U10C U11C C12G C13G	1.3
U8G G9C U10C U11A C12U C13A	1.04
U7A U8A G9A U10C U11G C12A C13A	1.09
U7G U8A G9U U10A U11A C12A C13U	1.04
U7G U8A U11A C12A C13A	1.35
U7G U8C G9C U10A C13G	1.07
U8A G9C U10G C13G	1.17
U7C U8A G9A U10A C12U C13G	1.14
U7C U11G C12G C13G	1.27
U8C G9C U11C C12A C13G	1.07
U7G U8G G9U C12G C13G	1.31
U7G G9A U10A U11C C12A C13G	1.1
U7A U8C G9U U10C U11G C12G C13A	1.17
U8G G9U U10G U11A C12U C13U	1.06
U7G U8A G9U U10G U11A C13U	1.06
U7C U8G U10C C12G C13U	1.35
U7C G9A U10A U11G C12G C13A	1.12
U8A G9C U10C U11A C12A C13A	1.04
U7A U8A U10A U11C C12A C13U	1.11
U7G U8G G9A U10C	3.59
U7C U8G G9C U10A U11G C13U	1.18
U7G U8A G9C U10G U11G C12A C13G	1.03
U8A U10C U11C C12G	1.27
U7A U8C U10A U11A C12G C13U	1.28
U7G U8A G9C U10A U11A C12G C13G	1.01
U7C U8G G9C U10C	3.58
U7A G9A U11G C12G	1.29
G9A U10A	3.05
U7C U8A C13A	1.31
U7A U8G G9C C12G C13U	1.34
U7G U8G G9C U10C U11G C12G C13U	1.07
U7G U8A G9A U10A C12A C13G	1.12
U7C U8G U11A C13G	1.07
U7C U10A C12G C13A	1.18
U7C U8G G9C U11A C12A C13A	1.15
U7G U8C G9U U11G C12U C13A	1.26
U7G U8C G9C U10G U11C C12G C13G	1.15
U7G U8C G9C C12A C13U	1.16
U7A U8A G9A U10A U11A C12U	1.17
U7G U8A G9A U11G C13G	1.03
U7A U10C U11A C12U C13G	1.14
U7A U8A G9U U10A U11C C12G C13U	1.18
U7A U8G G9U U10C U11C C12A C13G	1.32
U7C U8G G9U U10G U11G	1.18
U7C U8G G9C U11G C12U C13U	1.37
U7G U8A G9U U10C U11C C12G C13U	1.06
U8C G9U U10G C13U	1.67
U7C U8G G9A U10G U11A C13U	1.04
U7G U8A G9C U10G C12G C13G	1.08
U7G G9A U10C C12G C13A	1.09
U7G U8G U11G C13G	1.39
U7C U8C G9A U10G U11C C12A C13U	1.17
U7C U8A G9C U11A C13A	1.11
U7A U8C G9U U11G C12G C13G	1.16
U7C U8G U11C C12G	1.3
U7G U8A G9C U10A U11G C12U C13U	1.04
U7G U8C U10G U11G C12G C13A	1.18
U7G U8C G9A U10G U11A C12U C13U	1.13
U7G U8C G9C U10A U11C	1.18
U7A G9C U10A U11C C12G C13G	1.12
U7G U8G G9A U10A U11G C13U	1.14
U7C U8G U10C U11G	2
U7G U8G G9A U10G C12A C13G	1.07
U7A U8A G9U U11G C12U C13U	1.55
U7C G9C U10G C12A C13U	1.12
